Taken from patent US20250152746A1.

Recorded Human Primary Hepatocytes-splice site editing % 1250 ng/mL for the following molecules
Tested on: PCSK9 gene splice site
Assay type: cell-based, human
// note: answer is a bare numeric in %

# count of solved cases: 8
Entry GA077: PCSK9 gRNA for ABE8.8 splice site editing, Human/Cyno (nucleic acid, 2'-O-methyl at 1, 2, other sugars and backbone not given here; further chemistry not fully specified, PCSK9 gRNA for ABE8.8 splice site editing, Human/Cyno) guide: UCCCAGGCCTGGAGTTTATTGTTTTAGAGCTAGAAATAGCAAGTTAAAATAAGGCTAGTCCGTTATCAACTTGAAAAAGTGGCACCGAGTCGGTGCTTTT , Human Primary Hepatocytes-splice site editing % 1250 ng/mL reported as 2.8

Entry GA072: PCSK9 gRNA for ABE8.8 splice site editing, Human/Cyno (nucleic acid, 2'-O-methyl at 1, 2, other sugars, backbone and T or U not given here; further chemistry not fully specified, PCSK9 gRNA for ABE8.8 splice site editing, Human/Cyno) guide: GGTGGCTCACCAGCTCCAGCGTTTTAGAGCTAGAAATAGCAAGTTAAAATAAGGCTAGTCCGTTATCAACTTGAAAAAGTGGCACCGAGTCGGTGCTTTT , Human Primary Hepatocytes-splice site editing % 1250 ng/mL reported as 1.5

Entry GA090: PCSK9 gRNA for ABE8.8 splice site editing, Human/Cyno (nucleic acid, listed as RNA; modified_base 1: mod_base = OTHER; note = 2'-O-Methyl-guanosine phosphorothioate; modified_base 2: mod_base = OTHER; note = 2'-O-Methyl-cytidine phosphorothioate; modified_b, PCSK9 gRNA for ABE8.8 splice site editing, Human/Cyno) guide: GCAGGTGACCGTGGCCTGCGGTTTTAGAGCTAGAAATAGCAAGTTAAAATAAGGCTAGTCCGTTATCAACTTGAAAAAGTGGCACCGAGTCGGTGCTTTT , Human Primary Hepatocytes-splice site editing % 1250 ng/mL reported as 0.3

Entry GA082: PCSK9 gRNA for ABE8.8 splice site editing, Human/Cyno (nucleic acid, listed as RNA; modified_base 1: mod_base = OTHER; note = 2'-O-Methyl-cytidine phosphorothioate; modified_base 2: mod_base = OTHER; note = 2'-O-Methyl-uridine phosphorothioate; modified_bas, PCSK9 gRNA for ABE8.8 splice site editing, Human/Cyno) guide: CTTACCTGCCCCATGGGTGCGTTTTAGAGCTAGAAATAGCAAGTTAAAATAAGGCTAGTCCGTTATCAACTTGAAAAAGTGGCACCGAGTCGGTGCTTTT , Human Primary Hepatocytes-splice site editing % 1250 ng/mL reported as 5.6

Entry GA076: PCSK9 gRNA for ABE8.8 splice site editing, Human/Cyno (nucleic acid, 2'-O-methyl at 1, 2, other sugars, backbone and T or U not given here; further chemistry not fully specified, PCSK9 gRNA for ABE8.8 splice site editing, Human/Cyno) guide: GAAAGACGGAGGCAGCCTGGGTTTTAGAGCTAGAAATAGCAAGTTAAAATAAGGCTAGTCCGTTATCAACTTGAAAAAGTGGCACCGAGTCGGTGCTTTT , Human Primary Hepatocytes-splice site editing % 1250 ng/mL reported as 1.6

Entry GA078: PCSK9 gRNA for ABE8.8 splice site editing, Human/Cyno (nucleic acid, listed as RNA; note = Description of Combined DNA/RNA Molecule: Synthetic oligonucleotide; modified_base 1: mod_base = OTHER; note = 2'-O-Methyl-adenosine phosphorothioate; modified_base, PCSK9 gRNA for ABE8.8 splice site editing, Human/Cyno) guide: AGCACCTACCTCGGGAGCTGGTTTTAGAGCTAGAAATAGCAAGTTAAAATAAGGCTAGTCCGTTATCAACTTGAAAAAGTGGCACCGAGTCGGTGCTTTT , Human Primary Hepatocytes-splice site editing % 1250 ng/mL reported as 6.5

Entry GA085: PCSK9 gRNA for ABE8.8 splice site editing, Human/Cyno (nucleic acid, listed as RNA; modified_base 1: mod_base = OTHER; note = 2'-O-Methyl-guanosine phosphorothioate; modified_base 2: mod_base = OTHER; note = 2'-O-Methyl-cytidine phosphorothioate; modified_b, PCSK9 gRNA for ABE8.8 splice site editing, Human/Cyno) guide: GCCTCTTCACCTGCTCCTGAGTTTTAGAGCTAGAAATAGCAAGTTAAAATAAGGCTAGTCCGTTATCAACTTGAAAAAGTGGCACCGAGTCGGTGCTTTT , Human Primary Hepatocytes-splice site editing % 1250 ng/mL reported as 1.2

Entry GA075: PCSK9 gRNA for ABE8.8 splice site editing, Human/Cyno (nucleic acid, listed as RNA; modified_base 1: mod_base = OTHER; note = 2'-O-Methyl-uridine phosphorothioate; modified_base 2: mod_base = OTHER; modified_base, PCSK9 gRNA for ABE8.8 splice site editing, Human/Cyno) guide: TTGGAAAGACGGAGGCAGCCGTTTTAGAGCTAGAAATAGCAAGTTAAAATAAGGCTAGTCCGTTATCAACTTGAAAAAGTGGCACCGAGTCGGTGCTTTT , Human Primary Hepatocytes-splice site editing % 1250 ng/mL reported as 1.8

New cases:
Entry GA079: PCSK9 gRNA for ABE8.8 splice site editing, Human/Cyno (nucleic acid, listed as RNA; modified_base 1: mod_base = OTHER; note = 2'-O-Methyl-cytidine phosphorothioate; modified_base 2: mod_base = OTHER; note = 2'-O-Methyl-uridine phosphorothioate; modified_bas, PCSK9 gRNA for ABE8.8 splice site editing, Human/Cyno) guide: CTTTCCAGGTCATCACAGTTGTTTTAGAGCTAGAAATAGCAAGTTAAAATAAGGCTAGTCCGTTATCAACTTGAAAAAGTGGCACCGAGTCGGTGCTTTT , Human Primary Hepatocytes-splice site editing % 1250 ng/mL reported as 2.2
